Source: patent US10301295B2

- System: wheat
- ASSAY_PROTOCOL: Post-emergence herbicidal activity against cereal crops (wheat) +/- safener, crop selectivity
- Assay type: in vivo
- EXPERIMENTAL_SETUP: 250 g/ha, plus safener cloquintocet-mexyl (CQC) applied at 50 g/ha, 100%=total damage to plant, 0%=no damage
Let's look at some molecules and their measured Post-emergence herbicidal activity against wheat (percentage phytotoxicity), +CQC.
ATTRIBUTE_MEASURED: Post-emergence herbicidal activity against wheat (percentage phytotoxicity), +CQC (%)

MOLECULE	QUANTITATIVE_RESULT
CON=C(C)C(=O)NCCC1CC(=O)C(c2c(C)cc(C)cc2C)C1=O (stereo not shown)	10
Cc1cc(C)c(C2C(=O)CC(CCNC(=S)NC(=O)c3ccccc3)C2=O)c(C)c1 (stereo not shown)	70
CC#Cc1cc(C)c(C2C(=O)CC(CCNC(=O)N(C)c3ccccn3)C2=O)c(C)c1.Cl (stereo not shown)	30
Cc1cc(C)c(C2C(=O)CC(CCNC(=O)NO)C2=O)c(C)c1 (stereo not shown)	10
Cc1cc(-c2ncc(Cl)cc2F)cc(C)c1C1C(=O)CC(CCNC(=O)NC(C)(C)C)C1=O.Cl (stereo not shown)	70
Cc1cc(C)c(C2C(=O)CC(CCNC(=O)N(C)Cc3ccccc3)C2=O)c(C)c1 (stereo not shown)	20
Cc1cc(C)c(C2C(=O)CC(CCNC(=O)NC(=O)c3c(F)cc(Cl)cc3F)C2=O)c(C)c1 (stereo not shown)	80
Cc1cc(C)c(C2C(=O)CC(CCNC(=O)NC(=O)c3ccc(OC(F)(F)F)cc3)C2=O)c(C)c1 (stereo not shown)	20
Cc1cc(C)c(C2C(=O)CC(CCNC(=O)Nc3ccc(F)cn3)C2=O)c(C)c1 (stereo not shown)	80
Cc1cc(C)c(C2C(=O)CC(CCNC(=O)Nc3ccccc3)C2=O)c(C)c1 (stereo not shown)	10
Cc1cc(-c2ncc(Cl)cc2F)cc(C)c1C1C(=O)CC(CCNC(=O)N(C)c2ccccn2)C1=O.Cl (stereo not shown)	70
Cc1cc(C)c(C2C(=O)CC(CCNC(=S)Nc3ccccc3F)C2=O)c(C)c1 (stereo not shown)	0
Cc1cc(C)c(C2C(=O)CC(CCNC(N)=O)C2=O)c(C)c1 (stereo not shown)	10
Cc1cc(C)c(C2C(=O)CC(CCNC(=O)NC(=O)c3cc(F)ccc3C(F)(F)F)C2=O)c(C)c1 (stereo not shown)	80
CC(=NOCc1ccccc1)C(=O)NCCC1CC(=O)C(c2c(C)cc(-n3cc(Cl)cn3)cc2C)C1=O (stereo not shown)	20
Cc1cc(C)c(C2C(=O)CC(CCNC(=O)NC(=O)c3ccccn3)C2=O)c(C)c1 (stereo not shown)	20
Cc1cc(C)c(C2C(=O)CC(CCNC(=O)NC(=O)c3cccc(C(F)(F)F)c3)C2=O)c(C)c1 (stereo not shown)	40
COc1ccc(S(=O)(=O)NCCC2CC(=O)C(c3c(C)cc(C)cc3C)C2=O)cc1 (stereo not shown)	0
Cc1cc(C)c(C2C(=O)CC(CCNC(=S)Nc3ccccc3)C2=O)c(C)c1 (stereo not shown)	20
Cc1cc(C)c(C2C(=O)CC(CCNC(=O)NC(=O)c3ccc(C(F)(F)F)cc3F)C2=O)c(C)c1 (stereo not shown)	80
Cc1cc(C)c(C2C(=O)CC(CCNC(=O)Nc3cc(C(C)(C)C)on3)C2=O)c(C)c1 (stereo not shown)	30
Cc1cc(-c2ncc(Cl)cc2F)cc(C)c1C1C(=O)CC(CCNC(=O)Nc2ccccn2)C1=O (stereo not shown)	80

----------
- Test system: Echinochloa crus-galli (ECHCG)
- ASSAY_PROTOCOL: Glasshouse assay for herbicidal activity, pre-/post-emergence (percentage phytotoxicity)
- Assay type: in vivo
- EXPERIMENTAL_SETUP: Echinochloa crus-galli, pre-emergence, 480 h, Rate 250 g/ha; pre-emergence; visual assessment 20 DAA; 100%=total damage, 0%=no damage; read-out: Pre-emergence herbicidal activity (percentage phytotoxicity), ECHCG PRE

MOLECULE	pest or weed control at 250 g/ha, %
CC#Cc1cc(C)c(C2C(=O)CC(CCNC(=O)Nc3ccccn3)C2=O)c(C)c1 (stereo not drawn)	80
Cc1cc(-c2ncc(F)cn2)cc(C)c1C1C(=O)CC(CCNC(=O)C2=NOC(C)(C)C2)C1=O (stereo not drawn)	90
Cc1cc(C)c(C2C(=O)CC(CCNC(=O)NC(=O)c3ccc(OC(F)(F)F)cc3)C2=O)c(C)c1 (stereo not drawn)	0
Cc1cc(C)c(C2C(=O)CC(CCNC(=O)NC(=O)c3ccc(Cl)c(F)c3)C2=O)c(C)c1 (stereo not drawn)	0
Cc1cc(C)c(C2C(=O)CC(CCNC(=O)NC(=O)c3cc(C(F)(F)F)ccc3Cl)C2=O)c(C)c1 (stereo not drawn)	80
Cc1cc(-c2ncc(Cl)cn2)cc(C)c1C1C(=O)CC(CCNC(=O)C2=NOC(C)(C)C2)C1=O (stereo not drawn)	90
Cc1cc(OCC(F)(F)F)cc(C)c1C1C(=O)CC(CCNC(=O)C2=NOC(C)(C)C2)C1=O (stereo not drawn)	70
Cc1cc(C)c(C2C(=O)CC(CCNS(=O)(=O)C(C)C)C2=O)c(C)c1 (stereo not drawn)	70
Cc1cc(C)c(C2C(=O)CC(CCNS(=O)(=O)c3ccc(Cl)cc3Cl)C2=O)c(C)c1 (stereo not drawn)	30
CON=C(C)C(=O)NCCC1CC(=O)C(c2c(C)cc(C)cc2C)C1=O (stereo not drawn)	30
Cc1cc(C)c(C2C(=O)CC(CCNC(=O)NC(=O)c3ccc(F)cc3C(F)(F)F)C2=O)c(C)c1 (stereo not drawn)	70
Cc1cc(C)c(C2C(=O)CC(CCNC(=S)Nc3ccccc3)C2=O)c(C)c1 (stereo not drawn)	40

----------
- Test system: Echinochloa crus-galli (ECHCG)
- ASSAY_PROTOCOL: Glasshouse assay for herbicidal activity, pre-/post-emergence (percentage phytotoxicity)
- Format: in vivo
- EXPERIMENTAL_SETUP: Echinochloa crus-galli, post-emergence, 360 h, Rate 250 g/ha; post-emergence; visual assessment 15 DAA; 100%=total damage, 0%=no damage; read-out: Post-emergence herbicidal activity (percentage phytotoxicity), ECHCG POST
ATTRIBUTE_MEASURED: pest or weed control at 250 g/ha (%)

MOLECULE	QUANTITATIVE_RESULT
Cc1cc(C)c(C2C(=O)CC(CCNC(=O)N(C)c3ccccc3)C2=O)c(C)c1 (centres unmarked)	80
Cc1cc(C)c(C2C(=O)CC(CCNc3ncc(Cl)cn3)C2=O)c(C)c1 (centres unmarked)	100
Cc1cc(-n2cc(Cl)cn2)cc(C)c1C1C(=O)CC(CCNC(=O)Nc2ccc(F)cn2)C1=O (centres unmarked)	90
CCS(=O)(=O)NCCC1CC(=O)C(c2c(C)cc(C)cc2C)C1=O (centres unmarked)	70
Cc1cc(C)c(C2C(=O)CC(CCNC(=O)NC(=O)c3cc(F)c(Cl)cc3Cl)C2=O)c(C)c1 (centres unmarked)	80
CONC(=O)NCCC1CC(=O)C(c2c(C)cc(C)cc2C)C1=O (centres unmarked)	90
Cc1cc(C)c(C2C(=O)CC(CCNC(=O)Nc3ccc(Br)cn3)C2=O)c(C)c1.Cl (centres unmarked)	90
Cc1cc(C)c(C2C(=O)CC(CCNC(=O)NC(=O)c3ccccc3C(F)(F)F)C2=O)c(C)c1 (centres unmarked)	80

----------
- Test system: Alopecurus myosuroides (ALOMY)
- ASSAY_PROTOCOL: Glasshouse assay for herbicidal activity, pre-/post-emergence (percentage phytotoxicity)
- Type: in vivo
- EXPERIMENTAL_SETUP: Alopecurus myosuroides, 360 h; Rate 250 g/ha; post-emergence; visual assessment 15 DAA; 100%=total damage, 0%=no damage; read-out: Post-emergence herbicidal activity (percentage phytotoxicity), ALOMY POST

COMPOUND	ASSAY_SYSTEM	pest or weed control at 250 g/ha, %
Cc1cc(C)c(C2C(=O)CC(CCNC(=O)NC(=O)c3ccc(Cl)cc3)C2=O)c(C)c1 (stereo not shown) [Compound A51]	Alopecurus myosuroides (ALOMY)	90
Cc1cc(-c2ccc(C#N)cn2)cc(C)c1C1C(=O)CC(CCNC(=O)C2=NOC(C)(C)C2)C1=O (stereo not shown) [Compound A119]	Alopecurus myosuroides (ALOMY)	90
Cc1cc(C)c(C2C(=O)CC(CCNc3ccc([N+](=O)[O-])cc3C(F)(F)F)C2=O)c(C)c1 (stereo not shown) [Compound A104]	Alopecurus myosuroides (ALOMY)	90
Cc1cc(-n2cc(Cl)cn2)cc(C)c1C1C(=O)CC(CCNC(=O)C2=NOC(C)(C)C2)C1=O (stereo not shown) [Compound A43]	Alopecurus myosuroides (ALOMY)	90
Cc1cc(-n2cc(Cl)cn2)cc(C)c1C1C(=O)CC(CCNc2ncc(C(F)(F)F)cc2F)C1=O (stereo not shown) [Compound A98]	Alopecurus myosuroides (ALOMY)	90
Cc1cc(C)c(C2C(=O)CC(CCNC(=O)N(C)C)C2=O)c(C)c1 (stereo not shown) [Compound A31]	Alopecurus myosuroides (ALOMY)	90
Cc1cc(-n2cc(Cl)cn2)cc(C)c1C1C(=O)CC(CCNc2ccc(C(F)(F)F)cn2)C1=O (stereo not shown) [Compound A100]	Alopecurus myosuroides (ALOMY)	90
